# target of assay: ΔF508-CFTR (Homo sapiens, UniProt P13569, DEL508-508)
# Construct: host or cells: CFBE41o-, doxycycline-inducible
# Sequence (P13569 with tags, fused parts or gaps DEL508-508): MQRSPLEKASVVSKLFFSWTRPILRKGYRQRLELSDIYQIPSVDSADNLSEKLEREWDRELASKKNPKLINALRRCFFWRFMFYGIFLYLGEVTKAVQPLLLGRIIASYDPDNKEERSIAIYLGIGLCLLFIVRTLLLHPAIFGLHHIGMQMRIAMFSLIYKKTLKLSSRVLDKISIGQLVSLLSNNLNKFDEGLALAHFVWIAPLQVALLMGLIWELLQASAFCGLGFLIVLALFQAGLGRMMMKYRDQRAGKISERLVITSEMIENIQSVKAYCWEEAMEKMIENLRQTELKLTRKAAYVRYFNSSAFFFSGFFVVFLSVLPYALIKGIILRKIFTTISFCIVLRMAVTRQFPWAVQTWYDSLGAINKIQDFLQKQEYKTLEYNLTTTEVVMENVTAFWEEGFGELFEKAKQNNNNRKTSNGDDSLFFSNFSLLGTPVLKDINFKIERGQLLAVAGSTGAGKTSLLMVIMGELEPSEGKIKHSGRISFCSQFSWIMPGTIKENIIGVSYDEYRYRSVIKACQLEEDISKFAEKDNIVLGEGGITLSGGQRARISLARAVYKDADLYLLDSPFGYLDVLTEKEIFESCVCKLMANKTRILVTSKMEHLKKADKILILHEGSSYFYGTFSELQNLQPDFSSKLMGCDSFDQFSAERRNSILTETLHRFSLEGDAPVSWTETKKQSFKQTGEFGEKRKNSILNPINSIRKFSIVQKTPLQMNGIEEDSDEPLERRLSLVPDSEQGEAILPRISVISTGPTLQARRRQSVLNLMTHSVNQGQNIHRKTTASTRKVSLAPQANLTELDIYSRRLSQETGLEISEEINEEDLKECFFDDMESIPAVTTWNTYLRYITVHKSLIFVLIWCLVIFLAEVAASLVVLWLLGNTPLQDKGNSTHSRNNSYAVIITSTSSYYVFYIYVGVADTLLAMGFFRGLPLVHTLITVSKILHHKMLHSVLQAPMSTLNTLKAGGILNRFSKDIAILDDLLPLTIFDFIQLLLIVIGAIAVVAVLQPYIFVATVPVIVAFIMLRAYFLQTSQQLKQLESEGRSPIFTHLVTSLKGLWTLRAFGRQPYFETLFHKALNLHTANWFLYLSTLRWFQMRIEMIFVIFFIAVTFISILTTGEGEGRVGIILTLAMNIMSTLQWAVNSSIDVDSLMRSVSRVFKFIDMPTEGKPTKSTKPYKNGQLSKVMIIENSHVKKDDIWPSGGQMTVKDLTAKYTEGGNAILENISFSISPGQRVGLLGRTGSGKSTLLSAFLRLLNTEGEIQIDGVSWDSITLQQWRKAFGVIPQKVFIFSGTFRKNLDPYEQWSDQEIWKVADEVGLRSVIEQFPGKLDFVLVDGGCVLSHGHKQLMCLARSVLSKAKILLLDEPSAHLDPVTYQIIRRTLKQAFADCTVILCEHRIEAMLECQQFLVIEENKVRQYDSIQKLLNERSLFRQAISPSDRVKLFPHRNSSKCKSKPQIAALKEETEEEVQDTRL
# procedure summary: CFTR cell surface levels using HRP-tagged ΔF508-CFTR expressing CFBE cells, intrinsic corrector capacity
# Assay type: cell-based
# study conditions: HRP-tagged ΔF508-CFTR expressing CFBE41o- cells; compound alone (intrinsic corrector capacity); 20 hours at 33° C.; read-out: EC50
Answer each item with its documented EC50.
Please respond with the number in µM and leave the unit unwritten.

Can you share its EC50? I mean this compound: COCCN(C)c1ccc(-c2cc(C(=O)NS(C)(=O)=O)nc3c2c(C(C)C)nn3-c2cccc(N3CCOCC3)c2)cn1 [Compound 86]
0.637

Can you share its EC50? I mean this compound: CCS(=O)(=O)NC(=O)c1cc(-c2ccc(N3CCOCC3)cc2)c2c(C)nn(-c3ccc(OC(F)(F)F)cc3)c2n1 [Compound 70]
0.621

Can you share its EC50? I mean this compound: CS(=O)(=O)NC(=O)c1cc(N2CCC(N3CCOCC3)CC2)c2c(C3CCC3)nn(-c3ccc(C(F)(F)F)cc3)c2n1 [Compound 510]
0.298

Can you share its EC50? I mean this compound: COCCS(=O)(=O)NC(=O)c1cc(N2CCC(CN3CCCC3)CC2)c2c(C3CCC3)nn(-c3ccccc3)c2n1 [Compound 464]
0.306

Can you share its EC50? I mean this compound: CNS(=O)(=O)NC(=O)c1cc(N2CCC(COC)CC2)c2c(C3CCC3)nn(-c3ccc(F)cc3)c2n1 [Compound 669]
0.211

Can you share its EC50? I mean this compound: COC(=O)N1CCC(COc2cc(C(=O)NS(C)(=O)=O)nc3c2c(C2CCC2)nn3-c2ccccc2)CC1 [Compound 297]
0.0992

Can you share its EC50? I mean this compound: CC(C)Oc1nn(C2CCCCC2)c2nc(C(=O)NS(=O)(=O)N(C)C)cc(-c3ccc(C(=O)N4CCC(N(C)C)CC4)cc3)c12 [Compound 546]
0.325

Can you share its EC50? I mean this compound: CCS(=O)(=O)NC(=O)c1cc(-c2ccc(N(C)C3CCOCC3)nc2)c2c(C(C)C)nn(C3CCCCC3)c2n1 [Compound 90]
0.486

Can you share its EC50? I mean this compound: CC(C)c1nn(-c2ccc(F)cc2)c2nc(C(=O)NS(C)(=O)=O)cc(OCC3COCCN3C(C)C)c12 (centres unmarked) [Compound 310]
0.692

Can you share its EC50? I mean this compound: COCCS(=O)(=O)NC(=O)c1cc(N2CCC(COC)CC2)c2c(C3CCC3)nn(-c3ccc(F)cc3)c2n1 [Compound 670]
0.277

Can you share its EC50? I mean this compound: CN(C)S(=O)(=O)NC(=O)c1cc(-c2ccc(N3CCN(C4CC4)CC3)nc2)c2c(C3CCC3)nn(C3CCCCC3)c2n1 [Compound 536]
0.225

Can you share its EC50? I mean this compound: CC(=O)N1CCC2CN(c3cc(C(=O)NS(C)(=O)=O)nc4c3c(C3CCC3)nn4-c3ccccc3)CCC21 (centres unmarked) [Compound 216]
0.766

Can you share its EC50? I mean this compound: COCC1CCN(c2cc(C(=O)NS(=O)(=O)CCN3CCOCC3)nc3c2c(C2CCC2)nn3-c2ccccc2)CC1 [Compound 267]
0.172

Can you share its EC50? I mean this compound: COCC1CCN(c2cc(C(=O)NS(=O)(=O)CCCO)nc3c2c(C2CCC2)nn3-c2ccc(F)cc2)CC1 [Compound 672]
0.331

----------
# target of assay: ΔF508-CFTR (Homo sapiens, UniProt P13569, DEL508-508)
# Construct: host or cells: CFBE41o-, doxycycline-inducible
# procedure summary: CFTR cell surface levels using HRP-tagged ΔF508-CFTR expressing CFBE cells, in the presence of a co-corrector
# Type: cell-based
# study conditions: HRP-tagged ΔF508-CFTR CFBE cells, in the presence of 3 μM co-corrector
Label rule, in plain words: % Activation of 400% and up is class 1, under 400% is class 0.

Can CS(=O)(=O)NC(=O)c1cc(N2CCC(N3CCN(C4CC4)CC3)CC2)c2c(C3CCC3)nn(-c3ccccc3)c2n1 be said to have % Activation at or above 400%?
class 1

Can COCCS(=O)(=O)NC(=O)c1cc(-c2ccc(N3CCC(C#N)CC3)nc2)c2c(OC3CCOC3)nn(-c3ccccc3)c2n1 (stereo not shown) be said to have % Activation at or above 400%?
class 0

Can CN(C)S(=O)(=O)NC(=O)c1cc(-c2ccc(CCN3CCOCC3)cc2)c2c(C3CCC3)nn(C3CCCCC3)c2n1 be said to have % Activation at or above 400%?
class 0

Can CC(C)(C)c1nn(C2CCCC2)c2nc(C(=O)NS(C)(=O)=O)cc(-c3ccc(N4CCOCC4)nc3)c12 be said to have % Activation at or above 400%?
class 0

Can CS(=O)(=O)NC(=O)c1cc(-c2ccc(N3CCC(C#N)CC3)nc2)c2c(OC3CCOC3)nn(-c3ccccc3)c2n1 (stereo not shown) be said to have % Activation at or above 400%?
class 0

Can O=C(NS(=O)(=O)C1CC1)c1cc(N2CCC(N3CCOCC3)CC2)c2c(C3CCC3)nn(-c3ccc(F)cc3)c2n1 be said to have % Activation at or above 400%?
class 1

----------
# target of assay: ΔF508-CFTR (Homo sapiens, UniProt P13569, DEL508-508)
# Construct: host or cells: CFBE41o-, doxycycline-inducible
# procedure summary: CFTR cell surface levels using HRP-tagged ΔF508-CFTR expressing CFBE cells, intrinsic corrector capacity
# Assay type: cell-based
# study conditions: HRP-tagged ΔF508-CFTR expressing CFBE41o- cells; compound alone (intrinsic corrector capacity); 20 hours at 33° C.; read-out: EC50
Answer each item with its documented EC50.
Please respond with the number in nM and leave the unit unwritten.

Can you share its EC50? I mean this compound: COCCN1CCN(c2cc(C(=O)NS(C)(=O)=O)nc3c2c(C(C)C)nn3-c2ccc(F)cc2)CC1
1390

Can you share its EC50? I mean this compound: CN(C)S(=O)(=O)NC(=O)c1cc(OCC2CCN(C3CCC3)CC2)c2c(C3CCC3)nn(-c3ccc(F)cc3)c2n1
871

Can you share its EC50? I mean this compound: CC(C)c1nn(-c2ccccc2)c2nc(C(=O)NS(C)(=O)=O)cc(-c3ccc(N4CCOCC4)nc3)c12
611

Can you share its EC50? I mean this compound: CC(C)N1CCN(C2CCN(c3cc(C(=O)NS(=O)(=O)N(C)C)nc4c3c(C3CCC3)nn4-c3ccc(F)cc3)CC2)CC1
261

Can you share its EC50? I mean this compound: COCC1CCN(c2cc(C(=O)NS(C)(=O)=O)nc3c2c(C2CCC2)nn3-c2ccccc2)CC1
241

Can you share its EC50? I mean this compound: CN(C)S(=O)(=O)NC(=O)c1cc(C2CCN(CCC(F)(F)F)CC2)c2c(C3CCC3)nn(-c3ccc(F)cc3)c2n1
490

Can you share its EC50? I mean this compound: O=C(NS(=O)(=O)N1CCOCC1)c1cc(N2CCC(N3CCN(C4CC4)CC3)CC2)c2c(C3CCC3)nn(-c3ccccc3)c2n1
359

Can you share its EC50? I mean this compound: COCC1CCN(c2cc(C(=O)NS(=O)(=O)CCCN3CCOCC3)nc3c2c(C(C)C)nn3-c2ccc(F)cc2)CC1
96.5

Can you share its EC50? I mean this compound: Cc1nn(-c2cccc(C(F)(F)F)c2)c2nc(C(=O)NS(C)(=O)=O)cc(-c3ccc(N4CCOCC4)cc3)c12
900

Can you share its EC50? I mean this compound: CC(C)c1nn(-c2ccc(F)cc2)c2nc(C(=O)NS(C)(=O)=O)cc(-c3cnc(N(C)C4CCOCC4)nc3)c12
465

Can you share its EC50? I mean this compound: CN(c1ccc(-c2cc(C(=O)NS(C)(=O)=O)nc3c2c(C2CCC2)nn3-c2cccc(N3CCCC3)c2)cc1)C1CCOCC1
444

Can you share its EC50? I mean this compound: CC(C)N1CCN(C2CCN(c3cc(C(=O)NS(=O)(=O)N(C)C)nc4c3c(C3CCC3)nn4C3CCCCC3)CC2)CC1
1730

Can you share its EC50? I mean this compound: Cc1cc(-n2nc(C3CCC3)c3c(N4CCC(N5CCOCC5)CC4)cc(C(=O)NS(C)(=O)=O)nc32)ccc1F
150

Can you share its EC50? I mean this compound: CS(=O)(=O)NC(=O)c1cc(N2CCC(CO)CC2)c2c(C3CCC3)nn(-c3ccccc3)c2n1
381

Can you share its EC50? I mean this compound: COc1ccc(-c2cc(C(=O)NS(C)(=O)=O)nc3c2c(C)nn3-c2ccc(C)c(Cl)c2)cc1
2270

Can you share its EC50? I mean this compound: COCC1CCN(c2cc(C(=O)NS(=O)(=O)CCNC(=O)OCc3ccccc3)nc3c2c(C2CCC2)nn3-c2ccccc2)CC1
73

Can you share its EC50? I mean this compound: COS(=O)(=O)NC(=O)c1cc(N2CCC(N3CCOCC3)CC2)c2c(C3CCC3)nn(-c3ccc(F)cc3)c2n1
973

Can you share its EC50? I mean this compound: CC(C)c1nn(-c2cccc(N(C)C)c2)c2nc(C(=O)NS(C)(=O)=O)cc(N3CCCCC3)c12
460

Can you share its EC50? I mean this compound: CCOC(=O)N1CCN(c2cc(C(=O)NS(=O)(=O)CCOC)nc3c2c(C2CCC2)nn3-c2ccc(F)cc2)CC1
171

Can you share its EC50? I mean this compound: CC(C)c1nn(-c2cccc(C(F)(F)F)c2)c2nc(C(=O)NS(C)(=O)=O)cc(-c3ccc(N4CCC(C#N)CC4)cc3)c12
696

Can you share its EC50? I mean this compound: CCS(=O)(=O)N(C)C(=O)c1cc(N2CCC(CN3CCCC3)CC2)c2c(C3CCC3)nn(-c3ccccc3)c2n1
142

Can you share its EC50? I mean this compound: CC(C)c1nn(-c2cccc(C(F)(F)F)c2)c2nc(C(=O)NS(C)(=O)=O)cc(-c3ccc(N4CCC(C#N)CC4)nc3)c12
545

Can you share its EC50? I mean this compound: CCOC(=O)N1CCC(c2cc(C(=O)NS(C)(=O)=O)nc3c2c(C(C)C)nn3-c2ccc(F)cc2)CC1
282

Can you share its EC50? I mean this compound: CCS(=O)(=O)NC(=O)c1cc(-c2ccc(N3CCOCC3)nc2)c2c(C)nn(-c3ccc(F)cc3F)c2n1
1000

Can you share its EC50? I mean this compound: CS(=O)(=O)NC(=O)c1cc(C2CCN(C3CCC(F)(F)CC3)CC2)c2c(C3CCC3)nn(-c3ccc(F)cc3)c2n1
190

Can you share its EC50? I mean this compound: CCS(=O)(=O)NC(=O)c1cc(-c2ccc(N3CCOCC3)nc2)c2c(C)nn(-c3cccc(C(F)(F)F)c3)c2n1
756

Can you share its EC50? I mean this compound: CS(=O)(=O)NC(=O)c1cc(N2CCC(OCC(=O)N3CCCC3)CC2)c2c(C3CCC3)nn(-c3ccccc3)c2n1
533
